Catalogue of inhibition at 1 µM readings, one per entry.
Target: Recombinant human mPGES-1 (Homo sapiens, UniProt O14684)
Sequence (O14684 1-152): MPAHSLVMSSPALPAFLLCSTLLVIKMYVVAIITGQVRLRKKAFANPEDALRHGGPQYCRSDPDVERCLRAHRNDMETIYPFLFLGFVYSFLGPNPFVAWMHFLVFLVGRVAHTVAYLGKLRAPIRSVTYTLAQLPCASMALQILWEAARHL
Assay: In-vitro mPGES-1 enzyme inhibition assay (PGE2 formation from PGH2, HTRF detection)
Type: biochemical
Conditions: 1 μM test compound; recombinant human mPGES-1 microsomal fraction; read-out: Percentage inhibition at 1 μM

INSERT INTO results (molecule, experimental_value) VALUES
  ('CC1(C)Cc2c(c(C(=O)Nc3ccccc3Br)cc3nc(Nc4c(Cl)cccc4Cl)[nH]c23)O1 [Example-72]', '93.2%'),
  ('Cc1cc2c(o1)c(C(=O)Nc1cccc(C(F)(F)F)c1)cc1nc(Nc3c(Cl)cccc3Cl)[nH]c12 [Example-68]', '97.6%'),
  ('Cc1cccc(Cl)c1Nc1nc2cc(C(=O)Nc3ccc(C(F)(F)F)nc3)c3c(c2[nH]1)CC(C)(C)O3 [Example-160]', '99.2%');

Next item in the queue.
Measured inhibition at 1 µM, CC1(C)Cc2c(c(C(=O)NCCN3CCOCC3)cc3nc(Nc4c(Cl)cccc4Cl)[nH]c23)O1 [Example-70] : 69.1%

###

molecular target: Recombinant human mPGES-1 (Homo sapiens, UniProt O14684); assay: In-vitro mPGES-1 enzyme inhibition assay (PGE2 formation from PGH2, HTRF detection); type: biochemical; details: 1 μM test compound; recombinant human mPGES-1 microsomal fraction; read-out: Percentage inhibition at 1 μM
Catalogue of inhibition at 1 µM readings, one per entry.
Reply numerically in %, unit not repeated.

Take a look at these entries with their results.
INSERT INTO measurements (sample_smiles, observation_type, units_label, experimental_value) VALUES
  ('Cc1cccc(Cl)c1Nc1nc2cc(C(=O)NCc3ccc(F)cc3C(F)(F)F)c3c(c2[nH]1)CC(C)(C)O3', 'inhibition at 1 µM', '%', 74.6),
  ('Cc1ccc(Nc2nc3cc(C(=O)NCc4ccc(C(F)(F)F)cc4)c4c(c3[nH]2)CC(C)(C)O4)c(Cl)c1', 'inhibition at 1 µM', '%', 75.4),
  ('CC1(C)Cc2c(c(C(=O)NCc3ccccc3Br)cc3nc(Nc4c(Cl)cccc4Cl)[nH]c23)O1', 'inhibition at 1 µM', '%', 93.7);

I looked up Cc1nc2c(o1)c(C(=O)Nc1ccc(Br)cc1)cc1nc(Nc3c(Cl)cccc3Cl)[nH]c12 and its inhibition at 1 µM for Recombinant human mPGES-1 (Homo sapiens, UniProt O14684) was 93.7

I looked up CC1(C)Cc2c(c(C(=O)Nc3cc(F)c(F)cc3F)cc3nc(Nc4c(F)cccc4Cl)[nH]c23)O1 and its inhibition at 1 µM for Recombinant human mPGES-1 (Homo sapiens, UniProt O14684) was 96.4

I looked up Cc1nc2c(o1)c(C(=O)Nc1ccc(C(C)(C)C#N)cc1)cc1nc(Nc3c(Cl)cccc3Cl)[nH]c12 and its inhibition at 1 µM for Recombinant human mPGES-1 (Homo sapiens, UniProt O14684) was 81.2

I looked up Cc1ccc(NC(=O)c2cc3nc(Nc4c(F)cccc4Cl)n(C)c3c3c2OC(C)(C)C3)c(F)c1 and its inhibition at 1 µM for Recombinant human mPGES-1 (Homo sapiens, UniProt O14684) was 99.8

I looked up Cc1cc2c(o1)c(C(=O)Nc1ccc(F)cc1)cc1nc(Nc3c(Cl)cncc3Cl)[nH]c12 and its inhibition at 1 µM for Recombinant human mPGES-1 (Homo sapiens, UniProt O14684) was 92.4

I looked up Cc1nnc(NC(=O)c2cc3nc(Nc4c(Cl)cccc4Cl)[nH]c3c3c2OC(C)(C)C3)s1 and its inhibition at 1 µM for Recombinant human mPGES-1 (Homo sapiens, UniProt O14684) was 74.5

I looked up CC1(C)Cc2c(c(-c3nc(-c4ccc(F)c(Cl)c4)no3)cc3nc(Nc4c(Cl)cccc4Cl)[nH]c23)O1 and its inhibition at 1 µM for Recombinant human mPGES-1 (Homo sapiens, UniProt O14684) was 79.2

I looked up CC1(C)Cc2c(c(C(=O)Nc3ccc(Cl)cn3)cc3nc(Nc4c(F)cccc4Cl)[nH]c23)O1 and its inhibition at 1 µM for Recombinant human mPGES-1 (Homo sapiens, UniProt O14684) was 100

I looked up CC1(C)Cc2c(c(C(=O)NCc3ccc(F)cc3)cc3nc(Nc4c(Cl)cncc4Cl)[nH]c23)O1 and its inhibition at 1 µM for Recombinant human mPGES-1 (Homo sapiens, UniProt O14684) was 90.2

I looked up CC1(C)Cc2c(c(C(=O)Nc3ccc(C(F)(F)F)cc3F)cc3nc(Nc4c(Cl)cncc4Cl)[nH]c23)O1 and its inhibition at 1 µM for Recombinant human mPGES-1 (Homo sapiens, UniProt O14684) was 99.2
